# targetSystem: human EDG8 (S1PR5) receptor (Homo sapiens, UniProt Q9H228)
# Construct: carries the transgenes human EDG8 (S1PR5) receptor (Acession number NP_110387.1)
# Sequence (Q9H228 whole entry): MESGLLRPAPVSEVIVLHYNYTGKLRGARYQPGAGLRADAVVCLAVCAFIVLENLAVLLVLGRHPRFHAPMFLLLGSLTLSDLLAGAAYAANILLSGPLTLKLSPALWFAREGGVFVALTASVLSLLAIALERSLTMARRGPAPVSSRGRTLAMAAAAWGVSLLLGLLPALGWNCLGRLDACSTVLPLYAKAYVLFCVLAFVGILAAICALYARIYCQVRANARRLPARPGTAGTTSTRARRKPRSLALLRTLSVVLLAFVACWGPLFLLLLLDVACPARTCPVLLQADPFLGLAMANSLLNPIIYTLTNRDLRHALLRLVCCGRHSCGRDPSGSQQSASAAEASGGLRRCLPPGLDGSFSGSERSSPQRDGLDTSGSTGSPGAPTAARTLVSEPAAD
# measurementProtocol: Aequorin assay, agonist potency, CHO-A21-EDG8#12 cells
# conditionsUsed: agonist mode, aequorin luminescence; read-out: S1P5 EC50 range #
pEC50: −log10 of the molar value.
measurementType: pEC50

| compound | pEC50 |
| --- | --- |
| CCc1cccc(Cl)c1COc1ccc2c(c1)OC1(C2)CN(CC2(C(=O)O)CC2)C1 | ≥ 8.00 |
| CCc1cccc(Cl)c1COc1ccc2c(c1)CC1(C2)CN(CC2(C(=O)O)CC2)C1 | ≥ 8.00 |
| O=C(O)CN1CC2(Cc3ccc(C#Cc4ccccc4Cl)cc3O2)C1 | ≥ 8.00 |

Could you share which pEC50 value was measured for O=C(O)C1(CN2CC3(Cc4ccc(OCCc5ccccc5F)cc4C3)C2)CC1 ? 5.00 to 6.00

Could you share which pEC50 value was measured for O=C(O)CN1CC2(Cc3ccc(OCCOc4ccccc4)cc3C2)C1 ? 6.00 to 7.00

Could you share which pEC50 value was measured for O=C(O)CN1CC2(Cc3ccc(OCc4c(F)cccc4C(F)(F)F)cc3C2)C1 ? ≥ 8.00

Could you share which pEC50 value was measured for CC(Oc1ccc(C#Cc2ccc3c(c2)CC2(C3)CN(C3CC(C(=O)O)C3)C2)cn1)C(F)(F)F (centres unmarked) ? ≥ 8.00

====

Some compounds, each annotated with its measured EC50.
# targetSystem: human EDG8 (S1PR5) receptor (Homo sapiens)
# Construct: carries the transgenes human EDG8 (S1PR5) receptor (Acession number NP_110387.1)
# measurementProtocol: Aequorin assay, agonist potency, CHO-A21-EDG8#12 cells
# conditionsUsed: agonist mode, aequorin luminescence; read-out: S1P5 EC50 range #

Recorded results for 5 compounds are shown here.
| compound | EC50 |
| --- | --- |
| O=C(O)CN1CC2(Cc3ccc(OC4CCc5ccccc54)cc3C2)C1 (centres unmarked) [Example 66] | ≤ 10 nM |
| CCCc1ccc(COc2ccc3c(c2)CC2(C3)CN(CC3(C(=O)O)CC3)C2)c(OC)c1 [Example 2] | 1000 to 10000 nM |
| CCc1cccc(F)c1COc1ccc2c(c1)CC1(C2)CN(CC(=O)O)C1 [Example 21] | ≤ 10 nM |
| CCOc1ccc(C#Cc2ccc3c(c2)CC2(C3)CN(CC(=O)O)C2)cc1 [Example 77] | ≤ 10 nM |
| O=C(O)CN1CC2(Cc3ccc(C#Cc4ccccc4)cc3C2)C1 [Example 82] | 10 to 100 nM |

Could you share which EC50 value was measured for COc1ccc(CCOc2ccc3c(c2)CC2(C3)CN(CC3(C(=O)O)CC3)C2)cc1 [Example 135] ? 1000 to 10000 nM

====

Some compounds, each annotated with its measured EC50.
# targetSystem: S1P4 (Homo sapiens, UniProt O95977)
# Sequence (O95977 whole entry): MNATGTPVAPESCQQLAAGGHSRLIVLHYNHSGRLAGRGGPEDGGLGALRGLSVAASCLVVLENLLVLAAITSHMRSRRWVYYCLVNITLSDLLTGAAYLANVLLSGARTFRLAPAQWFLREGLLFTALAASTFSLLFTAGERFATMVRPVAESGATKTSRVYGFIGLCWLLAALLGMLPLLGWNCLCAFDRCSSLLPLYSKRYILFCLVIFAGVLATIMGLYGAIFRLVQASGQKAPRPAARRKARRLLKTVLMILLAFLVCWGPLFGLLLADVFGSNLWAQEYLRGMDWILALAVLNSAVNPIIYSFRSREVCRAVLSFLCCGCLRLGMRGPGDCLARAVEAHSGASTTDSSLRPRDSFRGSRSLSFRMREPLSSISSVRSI
# measurementProtocol: Aequorin assay, agonist potency, S1P4
# conditionsUsed: agonist mode, aequorin luminescence

| compound | measurement |
| --- | --- |
| CCOc1ccc(C#Cc2ccc3c(c2)CC2(C3)CN(C3CC(C(=O)O)C3)C2)cc1F (centres unmarked) | > 1 µM |
| CC(C)Oc1ccc(C#Cc2ccc3c(c2)CC2(C3)CN(CC(=O)O)C2)cn1 | > 1 µM |
| O=C(O)C1(CN2CC3(Cc4ccc(OCCC5CCCCC5)cc4C3)C2)CC1 | < 1 µM |
| O=C(O)CN1CC2(Cc3ccc(C#Cc4ccc(Cl)cc4)cc3O2)C1 | > 1 µM |

We now examine a further compound.
Could you share which EC50 value was measured for O=C(O)CN1CC2(Cc3ccc(OCc4ccc(Cl)cc4)cc3C2)C1 ? < 1 µM
